- experimental system: T1, CRBN, Q96SW2;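 further: pooled lentiviral library of zinc finger degron-EGFP fusions in mCherry-positive Jurkat cells, FACS-sorted after compound exposure, with degron abundance counted by next-generation sequencing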
- T1 chain: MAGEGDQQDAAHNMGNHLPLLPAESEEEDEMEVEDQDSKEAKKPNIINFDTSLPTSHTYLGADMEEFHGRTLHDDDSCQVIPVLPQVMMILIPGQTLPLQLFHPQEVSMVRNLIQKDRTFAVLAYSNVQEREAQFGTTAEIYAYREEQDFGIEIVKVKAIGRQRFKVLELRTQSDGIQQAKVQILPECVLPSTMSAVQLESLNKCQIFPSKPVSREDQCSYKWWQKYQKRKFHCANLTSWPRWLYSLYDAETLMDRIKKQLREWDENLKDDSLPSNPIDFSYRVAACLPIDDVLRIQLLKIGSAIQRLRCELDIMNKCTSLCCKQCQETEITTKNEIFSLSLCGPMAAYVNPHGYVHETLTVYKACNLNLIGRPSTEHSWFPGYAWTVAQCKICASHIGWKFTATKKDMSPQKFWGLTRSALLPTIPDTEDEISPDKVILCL
- assay explanation: log2 fold change of degron read counts, EGFP-low vs EGFP+ sorted cells (limma voom), compound-induced degradation; higher = more compound-induced degradation of the degron-EGFP fusion; degrons are variants of IKZF1/3 zinc finger 2; compound dose not given here
- run parameters: Jurkat; 18 h; compound: compound 19 (5-tert-butyl-thalidomide)
Over roughly 8,300 sequences, “log2 fold change of degron read counts, EGFP-low vs EGFP+ sorted cells (limma voom), compound-induced degradation” has its median near -1.1; the highest 2% begin near 3.2. This excerpt belongs to a sample that is enriched for the highest values.
parameter: log2 fold change of degron read counts
Enter a number only.

Here are 3 sequences together with their reported answers.
construct sequence	log2 fold change of degron read counts
FTCNICGAPFTQKGNLLRHIKL [46F_47T_49N_50I_52G_53A_54P_55F_67L_, Q9UKT9]	2.03
FLCNICGAPFTQKGNLLRHIKL [46F_47L_49N_50I_52G_53A_54P_55F_67L_, Q9UKT9]	1.46
FVCNICGAPFTQKGNLLRHIKL [46F_47V_49N_50I_52G_53A_54P_55F_67L_, Q9UKT9]	1.87

Exercise: Field request: log2 fold change of degron read counts | item: FECNICGAPFTQKGNLLRHIKL [46F_47E_49N_50I_52G_53A_54P_55F_67L_, Q9UKT9]
Key: 0.92
